# target: MAPK14 (human) (UniProt Q16539)
# Sequence (Q16539 whole entry, looked up): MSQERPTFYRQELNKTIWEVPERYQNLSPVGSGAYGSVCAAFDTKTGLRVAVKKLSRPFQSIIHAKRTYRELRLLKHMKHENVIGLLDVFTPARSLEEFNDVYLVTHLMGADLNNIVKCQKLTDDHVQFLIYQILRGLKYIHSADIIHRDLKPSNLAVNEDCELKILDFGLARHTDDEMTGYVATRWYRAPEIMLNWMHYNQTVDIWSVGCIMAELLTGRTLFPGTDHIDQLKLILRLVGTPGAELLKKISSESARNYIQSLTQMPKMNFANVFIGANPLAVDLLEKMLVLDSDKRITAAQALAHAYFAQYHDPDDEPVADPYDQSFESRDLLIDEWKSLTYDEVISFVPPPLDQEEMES
# protocol: TNF-alpha Inhibition (PBMC)
assay.metric: IC50 (nM)

1. CCCCCCC#Cc1nc(-c2ccc(F)cc2)c(-c2ccncc2)n1CCCc1ccccc1
2. O[C@@H](C#Cc1nc(-c2ccncc2)c(-c2ccc(F)cc2)[nH]1)c1ccccc1
Sort 1 and 2 by IC50 descending and give the first. // respond with label for picked entry 2

----------
# target: UniProt Q16539
# protocol: MAPK14 (p38) Inhibition
# condition.info: concentration not given here
assay.metric: inhibition (%)

INSERT INTO assay_data (molecule, result) VALUES
  ('OCCCCC#Cc1nc(-c2ccc(F)cc2)c(-c2ccncc2)n1CCCc1ccccc1', 98),
  ('Fc1ccc(-c2[nH]c(C=C(Br)Br)nc2-c2ccncc2)cc1', 93),
  ('OCCCC#Cc1nc(-c2ccc(F)cc2)c(-c2ccncc2)n1CCCc1ccccc1', 99),
  ('C[Si](C)(C)CCOCn1c(C=C(Br)Br)nc(-c2ccncc2)c1-c1ccc(F)cc1', 16);
